assay: label from the status in PepcDB records
REPORTED PROPERTY: protein production

MTEGLAVELAGLRSFSIVMPAYNVVTQRGERIFRETLESIAASCRYLQQHFPYTPEGELILISDGSTDRTCDVAMAGWPNAVPLQLVGLPTNVGIAAARNIGVRLAKGEVIFFCDADDLYRPEHLFLALSVLNQPLPEPYAPAYFGAVRTGVYCRDRLHPYWHKSLEQTLVLNLAVRREVHEFIGGFPEDEVFRQFRYGAEDVAYAYWLHQFCHTARLEQRTVEYRRFPNSVFDRQLKKFQAAPGTVADDLDEGDRQQEAQIRQIMATRLQELQAKAAQGVALEHHHHHH ... failed
MLIRKADAQDLDAICRLAAQINRQHHQALPELFLAAADADADRAFWRARLEGEDSVLLVAEREGAVLAFLTAQLQSSPPLPFLQARRICRIGTIVVDEACQGQGIGSRLLAAAEDWGRRQDADELRLEVMQFNQGALAFYARHGLAAQSQIMSKSLAGAAR ... failed

---

experiment: label from the status in PepcDB records
REPORTED PROPERTY: protein production

Please review the following examples before continuing.
MWPSCMARFPSDGQPGYRFVPSPGSGAGEEEMRPLVSVVCACFNISKYLDEAIASIYAQGYPNLELIVVDDGSTDDTYERLAMLRERHGFQLYRQANRGVSDALNHGLRHARGEFVMTPDLDDILLPGALDTRVDYLLAHPEVGCVGGFNICIDSAGNEVARDGFSEGCVERWGFDAALAETLVVMPLTALYRMEAMKRADFFDPSIRVQDFQITLRIAAQGYEIHRLPAYMGRYRRHGSGLSGRYKLNYEADMQAIEPYRAHPNYRRARQLILNKALKKAVVQDGRYAWQLFRSVPLRAWDRVTLKRFWRFLRYLPVLGLKGGTGVEGR ... failed
MTDYVNYNQERWNRVSARQGNAYTVPLSHEEFLVAKDKPLSVSLTVGKTVPLDWFEKAKGKKLLGLACGGGQQGPISAAHSYETTILDFSKEQLDKDRLVAERENLDLQTVQADMTQAFPFEDESFDIIFCPVSNIYIEDLANMWQESYRVLKKGGLLMVGYMNPWIYVFDADDVWEHPDKTLVPKYSLPFNARQLEEAGQITIDPEYGYEFSHTLEEQIAGQLRAGFAMIDFYESKDSRNRLTQFASDYLANLSMKW ... failed
MAMMAKHQAVKKIFDQIATKYDLIDTIISLGLDQHWRRVLVSSLGLREGMRCLDCGAGSGKVTELIYFRCGGCDVTALDITDSMFNPELKKYVKFVVSPAESLPFPDASFDRVSSAFLTRNLADIDRYFAEVYRVLRPGGVFVNMDIYNPTRPVISEFFSLYFYRFVPFFGNRATGSKNYTYLANTVKYFHRPSVISQKLADRGFSVEATDLFFGAVYLHRSVKPEGRGLEHHHHHH ... failed
MTEDRLSAEDKKFLEVERALKEAALNPLRHATEELFGDFLKMENITEICYNGNKVVWVLKNNGEWQPFDVRDRKAFSLSRLMHFARCCASFKKKTIDNYENPILSSNLANGERVQIVLSPVTVNDETISISIRIPSKTTYPHSFFEEQGFYNLLDNKEQAISAIKDGIAIGKNVIVCGGTGSGKTTYIKSIMEFIPKEERIISIEDTEEIVFKHHKNYTQLFFGGNITSADCLKSCLRMRPDRIILGELRSSEAYDFYNVLCSGHKGTLTTLHAGSSEEAFIRLANMSSSNSAARNIKFESLIEGFKDLIDMIVHINHHKQCDEFYIKHR ... not failed

// for each sequence below, give its protein production
1. MMWEQFKKEKLRGYLEAKNQRKVDFDIVELLDLINSFDDFVTLSSCSGRIAVVDLEKPGDKASSLFLGKWHEGVEVSEVAEAALRSRKVAWLIQYPPIIHVACRNIGAAKLLMNAANTAGFRRSGVISLSNYVVEIASLERIELPVAEKGLMLVDDAYLSYVVRWANEKLLKGKEKLGRLQEALESLQRENAYCSD
2. MSVQLSEGQTFGPRAINVTRTTLVRYAGASGDFNPIHYSDRAAREAGMDGVIAHGMWTMGAALGTVIDWVGGPERVVSQRARFTRPVQVPDTEGGTAIEVAATVRKVSEEAATLAVDVKCDGQSVLGRVEVVVRQGEQ

Reply |
1. not failed
2. failed

---

assay: label from the status in PepcDB records
REPORTED PROPERTY: protein production

KWLDYDFTSLRKEILDKAFQKSLTQINWIMGGYYLVMESLSFFEYEQSIQSKTVRHLILVFYLLFFMGVIKKLDTYLKEKLYERLEQEQALRYRDMERYSRHIEELYKEVRSFRHDYTNLLTSLRLGIEEEDMEQIKEVYGSVLKDSSQKLQNNKYDLGRLVNIRDKALKSLLAGKFLKARDKNIVFNVEVPEEIQVEGMSLLDFLTIVSILCDNAIEASVEASQPHVSIAFLKNGAQETFIIENSIKEEGIDISEIFSFGASSKGEERGVGLYTVMKIVESHPNTSLNTTCQNQVFRQVLTVIHTE ... failed
MDTAVVYYVLATALVLIGLAGVILPALPGLPLVFAGLLVAAWADNFTHIGWVTLVVLGLITALSYLVDFLATLYGAQRVGASKMALWGSVIGGIAGIFFMPIGLFIGPFAGAWLGEYYQTRKSGQATKVGIGTWVGIMLGTATKLALGLCMLGAFAIGWFF ... failed

---

assay: label from the status in PepcDB records
REPORTED PROPERTY: protein production

MQAGQVATNDLTISGIVNTVPASAVFAREANPVKVLNVKNTGDETLSNISIAVYASDVSSGTVPVDTTTIASLAGDATTTVTLIDPTIRDLEGGTVTYTAVVDPDNLIAETDETNNNKSSLEHHHHHH ... failed
MEPGLDGGYLLLGVDWAINDKGDTVYRPVGLPDPDKVQRDLASQCASMLNVALRPEMQLEQVGGKTLLVVYVPEADVTHKPIYKKATGLPGGAYRRIGSSDQRCVLEHHHHHH ... failed
MSQNVISQPVEAQQSFARAVTESLPGLLLVCAVALVASFVAPKLEAYPLFKTYLSLKDFILAIIFGIIIRNTVGVPAVFQPGLRYSTIMTKTGIVIMGSSYSLAGLVSVGAQALVFIAVFLFGTALVMMWLCRKVGMSTPLAACLAAGMSVCGVSATIAIAPAVKAKNEDMAYSIAVVLMFGLLALIAFPLIGKVFNLTPEQFGAFAGVGIVNSAQVLAAGFGFSQEAGIVAGIYNIGRVVFLPFVVLMLAIMAAAQEAEQGNEVAKINKWQMIRDKFPLFVLGFLAIVCLNTAGVLTKPEVKMAKHFMEWAFLLGFASIGLTTRLSDLRAAGLNGFLFGFGVAGLKAALALAAVLLFMS ... failed
MSQFFYIHPDNPQQRLINQAVEIVRKGGVIVYPTDSGYALGCKIEDKNAMERICRIRQLPDGHNFTLMCRDLSELSTYSFVDNVAFRLMKNNTPGNYTFILKGTKEVPRRLLQEKRKTIGMRVPSNPIAQALLEALGEPMLSTSLMLPGSEFTESDPEEIKDRLEKQVDLIIHGGYLGQKPTTVIDLTDDTPVVVREGVGDVKPFL ... not failed

// for each sequence below, give its protein production
1. IKKNVFNIFYLFLVLEELKGPVLYIVGTPIGNLEDITYRAIDVLKSVNVIFAEDTRVTSKLLSRYKINKKMISCNAVTENKKISLLLDYLAKGNSVAFVSDAGTPGLSDPGSLLVAAAFREGYKVCPIPGV
2. AKESEQKVTIDSAKHEKHTKDKEENNSANTVFFDKINDLLVASVKEFEGTVGISYLDLETGEQRSVNGQHEFYTASTIKVPLTMLVADTVASGQKKWTDLIPYNAEEDYEEGTGIIAYNIQPEYPLKTLQEYAITYSDNIAKNMLYDTLGGDAKAKREMYQRYLHKTPSIEEPQFSSEDALVILQKLYTEKATKPDYQAIYDSMKQSVFHERMETPTTQGKVAHKIGSYDEFIHDMGILETPHPFALAIFTKGPDNAKSAAFIASVTDKLWQLQVSEYPNQ
3. MPKKLGPKSQRQRGAVAPLTQVQQAACSPTYKQAKRNARSYQGRRRRRRCSQNTTSRVPSQLQAVDSSSASCRTYKNSEELRSRIVSGIITPIHEQWEKANVSSPHREFPPATAREVDPLRIPPHHPHTSRQPPWCDPLGPFVVGGEDLDPFGPRRGGMIVDPLRSGFPRALIDPSSGLPNRLPPGAVPPGARFDPFGPIGTSPPGPNPDHLPPPGYDDMYL

Reply |
failed
not failed
failed

---

assay: label from the status in PepcDB records
REPORTED PROPERTY: protein production

MAAARDQLQMAADVARLGIWRWNLADDSLQWNERMCEMYGQPLALRDGGLVYEHWRSRLHPEDLERTEASLRAAVEGRGNYDVIFRVVLPDGGIRFIQAGAQVERDADGNPLQVTGINIDITSDQQLQARLREAKEQADAASAAKSSFLANMSHEIRTPMNAVLGML ... failed
MTRAKQIILWASLSAMPLIAQASERSDDEIKALVYQAILERPEIILQAVEQLQQAEEAAQAASAHAALTENRDSLFNDPNAPVLGNPEGDVTVVEFFDYNCPYCRRAMAEVQGLVDADPNVRLVYREWPILGEGSDFAARAALAARQQGKYEAFHWALMGMSGKANETGVLRIAREVGLDTEQLQRDMEAPEVTAHIAQSMALAQKLGFNGTPSFVVEDALVPGFVEQSQLQDAVDRARKAAAK ... failed
LRRGHLKLQRDGQIIGHTPEEWEQIFREVWPEYEIEPNPLPGYAPFDIGMWLTVEAPAYAVWIDPEDGSEYWAG ... failed
MENKEISYEIIDFSGETNVQFRTSVDPGSYIPTHWHRAIEIIYMQEGSLDVIVESESFTIYKGDCILVNGNVLHSTKCTAPNTAILLQIPLNFMEKYIPNLGQLIFLWDYRTEDPVKKTKLMMLKTTLEQLQVINDIQPDGYLLRFNSLIFELMFQLYHNFSVQVFPQDINHKKKEMDRLDP ... not failed
MKIRSADASDLDSLLRLNYQIGVMHFENAPESFVKPSSEEKEFLLKALNDQSRLFLVAEISGDVVGFVTATVTQNEAIPFLVKTPICRVGTIVVDENARVSGIGTQLMARCNDWAKSQGAEQIRLEVMAFNKSAQSFYVKLGFEEQSKTMWKTVN ... failed

// for each sequence below, give its protein production
1. MNVSHISAVSYYFARYIQEVLEVPVGIVVSTWGGSKIEAWMSRESIKPFSSIDLSILDNDAEVKNPTATPCVLYNGKIAPLTNFAVRGFLWYQGESNRDNADLYQSLMPAFVADLRAKWGRGELPFYFVQIAPFDYEGADGTSAARLREVQLQNMKDIPNSGMVTTMDVGHPVFIHPVDKETVGNRLAYWALAQTYGMKGFGYAPPVYKSMEIQENKIYINFYNAQRGLSPMWTSLKGFEIAGEDKVFYPAFAEIETTTARLAVSSDKVSHPVAVRYAYKNYVEASIFSIHGIPAAPFRTDNWLEHHHHHH
2. KSAVTAQSILEKADEIRFPQDSFQVNVAIRTAAPDHAEDLYRYQVLSKGNENSIVMITEPASERGQAILMKGRDLWVFMPSVSQPIRLSLSQRLTGQVANGDIARANFTGDYHPQLLRNESIDDEDYYVLELTGIDRSVTYQKVLLWVNQSNFRPYKAEFYSVSGRLLKTSRYENFDNILGEMRPTRIIMEDALKSGEVSVLDYSDMKLRDLPDKIFTKDYLKRLE

Reply |
1: failed; 2: not failed
